- measurement.target: GABA transporter 4 (Mus musculus, UniProt P31650)
- Sequence (P31650 whole entry): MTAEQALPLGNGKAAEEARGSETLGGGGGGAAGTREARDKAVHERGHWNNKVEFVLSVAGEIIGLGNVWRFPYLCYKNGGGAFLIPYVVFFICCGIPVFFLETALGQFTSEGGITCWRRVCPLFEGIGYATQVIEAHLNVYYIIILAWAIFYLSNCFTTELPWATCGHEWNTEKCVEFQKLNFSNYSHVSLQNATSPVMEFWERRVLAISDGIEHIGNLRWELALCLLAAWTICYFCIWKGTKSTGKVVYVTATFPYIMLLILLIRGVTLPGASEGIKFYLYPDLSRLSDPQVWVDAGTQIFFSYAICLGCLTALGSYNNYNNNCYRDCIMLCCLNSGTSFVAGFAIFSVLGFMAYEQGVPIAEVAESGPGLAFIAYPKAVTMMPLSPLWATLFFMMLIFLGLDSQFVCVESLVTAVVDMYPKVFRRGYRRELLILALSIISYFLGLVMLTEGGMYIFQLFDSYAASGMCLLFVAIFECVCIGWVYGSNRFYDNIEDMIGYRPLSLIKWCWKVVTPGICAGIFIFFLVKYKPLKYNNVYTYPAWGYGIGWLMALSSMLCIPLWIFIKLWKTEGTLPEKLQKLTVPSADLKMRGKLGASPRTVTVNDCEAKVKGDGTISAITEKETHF
- assay.summary: Inhibition of mouse GAT4 expressed in HEK cells assessed as reduction in [3H]GABA uptake by measuring remaining [3H]GABA uptake levels preincubated for 25 mins followed by [3H]GABA addition and measured after 4 mins by microbeta liquid scintillation counting analysis
Below, each entry is listed with its recorded IC50.
API: value field is a number in µM; no unit string.

{"molecule": "O=C(O)[C@H]1CNC[C@@H](N/N=C/c2cc(F)ccc2-c2ccc(Cl)cc2)C1 (racemic)", "measurement.target": "GABA transporter 4 (Mus musculus, UniProt P31650)", "test.readout": "IC50", "assay.value": 5.37}
{"molecule": "O=C1Nc2ccc(-c3cccs3)cc2C1=O", "measurement.target": "GABA transporter 4 (Mus musculus, UniProt P31650)", "test.readout": "IC50", "assay.value": 24.5}

Turning now to a further molecule:
-- ask IC50 for O=C(O)[C@H]1CNC[C@@H](N/N=C/c2ccccc2-c2ccc(-c3ccccc3)cc2)C1 (racemic) ?
-- reply 10.2

---

Below, each entry is listed with its recorded pIC50.
- measurement.target: Sodium- and chloride-dependent GABA transporter 1 (Mus musculus, UniProt P31648)
- assay.summary: Inhibition of mouse GAT1 expressed in HEK cells assessed as reduction in [3H]GABA uptake by measuring remaining [3H]GABA uptake levels preincubated for 25 mins followed by [3H]GABA addition and measured after 4 mins by microbeta liquid scintillation counting analysis
Schema: pIC50 number; meaning minus log10 of the concentration expressed in molar units.

{"compound": "O=C(O)[C@H]1CNC[C@@H](N/N=C/c2cc(F)ccc2-c2ccc(Cl)cc2)C1 (racemic)", "assay.value": 4.26}

-- ask pIC50 for O=C1Nc2ccc(-c3cccs3)cc2C1=O ?
-- reply 4.53

---

- measurement.target: GABA transporter 4 (Mus musculus) (UniProt P31650)
- Sequence (P31650 whole entry): as above
- assay.summary: Inhibition of mouse GAT4 expressed in HEK cells assessed as reduction in [3H]GABA uptake by measuring remaining [3H]GABA uptake levels at 100 uM preincubated for 25 mins followed by [3H]GABA addition and measured after 4 mins by microbeta liquid scintillation counting analysis
- Format: cell-based
test.readout: Activity (%)
API: value field is a number in %; no unit string.

{"molecule": "NN[C@@H]1CNC[C@H](C(=O)O)C1 (racemic)", "Activity (%)": 116}

Turning now to a further molecule:
-- ask Activity for NNC[C@H]1CNC[C@H](C(=O)O)C1 (racemic) ?
-- reply 86

---

Below, each entry is listed with its recorded IC50.
- measurement.target: GABA transporter 3 (Mus musculus)
- Sequence (P31649 whole entry): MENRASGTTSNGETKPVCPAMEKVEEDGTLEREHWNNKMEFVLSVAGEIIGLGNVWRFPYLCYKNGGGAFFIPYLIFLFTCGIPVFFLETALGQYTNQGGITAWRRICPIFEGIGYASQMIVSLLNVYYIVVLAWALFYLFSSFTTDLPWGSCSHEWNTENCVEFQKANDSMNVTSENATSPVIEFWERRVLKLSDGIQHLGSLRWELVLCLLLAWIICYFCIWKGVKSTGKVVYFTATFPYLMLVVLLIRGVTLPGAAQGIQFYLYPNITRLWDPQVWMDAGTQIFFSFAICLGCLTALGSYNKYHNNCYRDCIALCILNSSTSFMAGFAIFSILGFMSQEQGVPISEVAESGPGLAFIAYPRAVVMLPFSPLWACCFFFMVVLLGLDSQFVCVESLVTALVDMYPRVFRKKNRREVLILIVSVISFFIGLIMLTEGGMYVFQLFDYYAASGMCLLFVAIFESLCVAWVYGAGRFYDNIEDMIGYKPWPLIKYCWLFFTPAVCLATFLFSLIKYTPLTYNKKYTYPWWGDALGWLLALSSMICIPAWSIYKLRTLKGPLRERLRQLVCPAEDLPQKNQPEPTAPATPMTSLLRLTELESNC
- assay.summary: Inhibition of mouse GAT3 expressed in HEK cells assessed as reduction in [3H]GABA uptake by measuring remaining [3H]GABA uptake levels preincubated for 25 mins followed by [3H]GABA addition and measured after 4 mins by microbeta liquid scintillation counting analysis

{"compound": "O=C(O)[C@H]1CNC[C@@H](N/N=C/c2cc(F)ccc2-c2ccc(Cl)cc2)C1 (racemic)", "IC50": "7.76 µM"}

-- ask IC50 for O=C(O)[C@H]1CNC[C@@H](N/N=C/c2ccccc2-c2ccc(-c3ccccc3)cc2)C1 (racemic) ?
-- reply 6.61 µM

---

- measurement.target: GABA transporter 2 (Mus musculus)
- Sequence (P31651 whole entry): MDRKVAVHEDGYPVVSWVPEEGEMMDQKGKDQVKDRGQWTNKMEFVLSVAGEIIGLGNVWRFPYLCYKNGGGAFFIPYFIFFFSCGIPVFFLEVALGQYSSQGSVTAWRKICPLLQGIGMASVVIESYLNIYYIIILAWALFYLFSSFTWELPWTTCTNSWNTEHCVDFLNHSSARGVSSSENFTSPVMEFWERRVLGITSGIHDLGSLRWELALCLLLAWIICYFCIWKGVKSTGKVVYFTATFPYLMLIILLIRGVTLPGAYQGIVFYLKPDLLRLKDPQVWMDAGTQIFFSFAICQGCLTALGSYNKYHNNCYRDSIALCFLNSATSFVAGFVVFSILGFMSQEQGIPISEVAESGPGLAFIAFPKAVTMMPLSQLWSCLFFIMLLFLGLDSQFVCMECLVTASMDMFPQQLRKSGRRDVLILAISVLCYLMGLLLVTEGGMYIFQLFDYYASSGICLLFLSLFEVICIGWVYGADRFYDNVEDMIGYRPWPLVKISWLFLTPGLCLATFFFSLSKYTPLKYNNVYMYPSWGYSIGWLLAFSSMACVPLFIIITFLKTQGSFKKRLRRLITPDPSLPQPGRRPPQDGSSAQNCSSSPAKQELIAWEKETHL
- assay.summary: Inhibition of mouse GAT2 expressed in HEK cells assessed as reduction in [3H]GABA uptake by measuring remaining [3H]GABA uptake levels preincubated for 25 mins followed by [3H]GABA addition and measured after 4 mins by microbeta liquid scintillation counting analysis
- Type: cell-based
test.readout: IC50 (µM)
API: value field is a number in µM; no unit string.

-- ask IC50 for O=C(O)[C@H]1CNC[C@@H](N/N=C/c2cc(F)ccc2-c2ccc(Cl)cc2)C1 (racemic) ?
-- reply 52.5

---

Below, each entry is listed with its recorded Activity.
- measurement.target: GABA transporter 4 (Mus musculus) (UniProt P31650)
- assay.summary: Inhibition of mouse GAT4 expressed in HEK cells assessed as reduction in [3H]GABA uptake by measuring remaining [3H]GABA uptake levels at 100 uM preincubated for 25 mins followed by [3H]GABA addition and measured after 4 mins by microbeta liquid scintillation counting analysis
- Assay type: cell-based
API: value field is a number in %; no unit string.

{"compound": "NNCC[C@H]1CNC[C@H](C(=O)O)C1 (racemic)", "measurement.target": "GABA transporter 4 (Mus musculus) (UniProt P31650)", "units.of.measure": "%", "Activity": 85}
{"compound": "NNC[C@@H]1CNC[C@H](C(=O)O)C1 (racemic)", "measurement.target": "GABA transporter 4 (Mus musculus) (UniProt P31650)", "units.of.measure": "%", "Activity": 92}

Turning now to a further compound:
-- ask Activity for NNCC[C@@H]1CNC[C@H](C(=O)O)C1 (racemic) ?
-- reply 102

Sourced from ChEMBL document CHEMBL4371022
